- System Under Test: FGFR1-GST (Homo sapiens, UniProt P11362)
- Construct: GST; made in house
- Sequence (P11362 22-822): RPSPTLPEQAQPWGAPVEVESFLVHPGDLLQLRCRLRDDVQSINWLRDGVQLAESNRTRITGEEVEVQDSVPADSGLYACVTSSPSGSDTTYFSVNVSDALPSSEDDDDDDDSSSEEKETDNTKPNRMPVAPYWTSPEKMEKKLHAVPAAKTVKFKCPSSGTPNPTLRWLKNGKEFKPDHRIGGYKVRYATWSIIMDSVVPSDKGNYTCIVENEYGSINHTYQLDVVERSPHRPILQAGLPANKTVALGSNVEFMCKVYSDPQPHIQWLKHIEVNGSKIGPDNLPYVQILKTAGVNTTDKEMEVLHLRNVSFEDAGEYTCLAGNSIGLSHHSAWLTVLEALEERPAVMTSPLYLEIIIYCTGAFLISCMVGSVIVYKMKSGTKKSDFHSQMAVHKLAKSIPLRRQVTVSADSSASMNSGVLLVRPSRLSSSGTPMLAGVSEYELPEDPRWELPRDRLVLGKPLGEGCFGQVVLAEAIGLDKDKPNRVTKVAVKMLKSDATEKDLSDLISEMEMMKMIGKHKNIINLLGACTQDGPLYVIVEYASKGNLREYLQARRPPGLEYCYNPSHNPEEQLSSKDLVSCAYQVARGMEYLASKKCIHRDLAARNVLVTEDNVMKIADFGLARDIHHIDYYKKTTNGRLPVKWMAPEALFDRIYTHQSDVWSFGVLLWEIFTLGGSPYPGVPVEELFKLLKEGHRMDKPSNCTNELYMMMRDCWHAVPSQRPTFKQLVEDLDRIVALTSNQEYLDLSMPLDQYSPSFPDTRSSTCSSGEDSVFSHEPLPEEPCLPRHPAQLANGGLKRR
- Protocol Notes: FGFR-1 TR-FRET biochemical assay
- Condition Set: bounds given in nM
Please go through the items and note down their IC50.

These solved cases illustrate the format of a correct answer.
# Compound, IC50
records = [
    ("COCc1c(-c2ccc(NC(=O)Nc3cc(C(F)(F)F)ccc3F)cc2)c2c(N)ncnn2c1CN1CCNC(=O)C1", "< 10 nM"),
    ("CC(O)c1c(-c2ccc(NC(=O)Nc3cc(C(F)(F)F)ccc3F)cc2)c2c(N)ncnn2c1CN1CCOCC1 (stereo not shown)", "10 to 100 nM"),
    ("COCc1c(-c2ccc(NC(=O)Nc3cc(C(F)(F)F)ccc3F)cc2)c2c(N)ncnn2c1CO", "10 to 100 nM"),
    ("Cc1c(-c2ccc(NC(=O)Nc3cc(C(F)(F)F)ccc3F)cc2)c2c(N)ncnn2c1CN1CCCOCC1", "< 10 nM"),
    ("Nc1ncnn2c(CN3CCOCC3)c(-c3cnco3)c(-c3ccc(NC(=O)Nc4cc(F)cc(C(F)(F)F)c4)cc3)c12", "< 10 nM"),
]

Please report IC50 for every entry that follows.
1. CCC(=O)c1c(-c2ccc(NC(=O)Nc3cc(C(F)(F)F)ccn3)cc2)c2c(N)ncnn2c1CN1CCOCC1
2. COCCNCc1c(-c2ccc(NC(=O)Nc3cc(C(F)(F)F)ccc3F)cc2)c2c(N)ncnn2c1CN1CCOCC1
3. Nc1ncnn2c(CN3CCOCC3)c(-c3cnco3)c(-c3ccc(NC(=O)Nc4cc(C(F)(F)F)ccn4)cc3)c12
4. Nc1ncnn2c(CN3CCOCC3)c(Cl)c(-c3ccc(NC(=O)Nc4cc(C(F)(F)F)ccc4Cl)c(F)c3)c12
5. N#CCc1c(-c2ccc(NC(=O)Nc3cc(C(F)(F)F)ccc3F)c(F)c2)c2c(N)ncnn2c1CN1CCS(=O)(=O)CC1
6. Nc1ncnn2c(CN3CCOCC3)c(C(=O)C3CC3)c(-c3ccc(NC(=O)Nc4cc(C(F)(F)F)ccn4)cc3)c12
7. COCc1c(-c2ccc(NC(=O)Nc3cc(C(F)(F)F)ccc3Cl)cc2)c2c(N)ncnn2c1CN1CCOCC1

Outgoing:
1: 10 to 100 nM; 2: > 100 nM; 3: < 10 nM; 4: 10 to 100 nM; 5: < 10 nM; 6: 10 to 100 nM; 7: 10 to 100 nM

Please report IC50 for every entry that follows.
1. CON(C)C(=O)c1c(-c2ccc(NC(=O)Nc3cc(C(F)(F)F)ccn3)cc2)c2c(N)ncnn2c1CN1CCOCC1
2. N#CCc1c(-c2ccc(NC(=O)Nc3cc(C(F)(F)F)ccc3F)c(F)c2)c2c(N)ncnn2c1CN1CCOCC1
3. COCc1c(-c2ccc(NC(=O)Nc3cc(C(F)(F)F)ccc3F)c(F)c2)c2c(N)ncnn2c1CN1CCNC(=O)C1
4. Nc1ncnn2c(CN3CCOCC3)c(-c3cnco3)c(-c3ccc(NC(=O)Nc4cc(C(F)(F)F)ccc4F)cc3)c12
5. CC(=O)c1c(-c2ccc(NC(=O)Nc3cc(C(F)(F)F)ccc3F)cc2)c2c(N)ncnn2c1CN1CCOCC1
6. COCc1c(-c2ccc(NC(=O)Nc3cc(C(F)(F)F)ccc3F)cc2)c2c(N)ncnn2c1CN1CCCC1

Outgoing:
1: > 100 nM; 2: < 10 nM; 3: < 10 nM; 4: < 10 nM; 5: < 10 nM; 6: 10 to 100 nM

Cited source: patent US8829185B2
